Provide the recorded apparent KD of MS2 coat protein for the entries that follow.
System: MS2 coat protein
Assay: apparent KD of MS2 coat protein, switch OFF state (with FMN for OFF switches, without FMN for ON switches); designed switch direction (-1 OFF switch, 1 ON switch): -1; higher = weaker reporter binding
Settings: FMN input: 0 or 200 uM; Eterna round: R93 (includes R88 designs)

Prompt: Item: AAAUAGCAAGGAUAUACAUGAGGAUCACCCAUGUAAGGAUGAUACGUAAUAGAAGAAAGUAGAAGGUGCAAAUA [Ex 3 Tesla 6] Test system: MS2 coat protein Read-out: apparent KD of MS2 coat protein Value: ?
Response: 0.148 µM

Prompt: Item: GGUUGUGGAGGAUAUACAUGAGGAUCACCCAUGUGAGAGAAAAAAGUGAGAAAGAAAAGUAGAAGGUCGUGACG [salish99-ex3-69] Test system: MS2 coat protein Read-out: apparent KD of MS2 coat protein Value: ?
Response: 0.034 µM

Prompt: Item: AAUUAGUGAGGAUAUACGGGAGGGAGGGAGGGAGGGAGGGAGUAGAAGGCACAUGAGGAUCACCCAUGUAAUUA [The West [Loop] is Red] Test system: MS2 coat protein Read-out: apparent KD of MS2 coat protein Value: ?
Response: 0.0499 µM

Prompt: Item: AGAAAACAUGAGGAUCACCCAUGUGAGGAUAUGAAAAAGAAAAGAAAAGAAAGAAGAAUCAGAAGGCACAAGAA [Weneg] Test system: MS2 coat protein Read-out: apparent KD of MS2 coat protein Value: ?
Response: 0.0298 µM

Prompt: Item: AAGAAGUGAGGAUAUGCUGACAAUAUGAAGACUUGAGGUAUGCAGAAGGCACAUGAGGAUCACCCAUGUAAGAA [JR_Exclusion4_Sub4] Test system: MS2 coat protein Read-out: apparent KD of MS2 coat protein Value: ?
Response: 0.0236 µM

Prompt: Item: AAGUUGGUAGGAUAUACGUGCAAUUGGUGUGUCCGGAAAAAACAUGAGGAUCACCCAUGUAGAAGGACCAAAAA [Quonmabi] Test system: MS2 coat protein Read-out: apparent KD of MS2 coat protein Value: ?
Response: 0.0363 µM

Prompt: Item: AACAGUACAGGAUAUACAUGAGGAUCACCCAUGUGAGAAUUUAGCAGCGUAACACACAGUAGAAGGGUAAUGGA [Ruby 21] Test system: MS2 coat protein Read-out: apparent KD of MS2 coat protein Value: ?
Response: 0.0393 µM

Prompt: Item: AAAAAAAGAGGAUAUACGAACAUGUCGAAAGACGUGAAGGGACAUGAGGAUCACCCAUGUAGAAGGUUUAAAAA [Mat - Exclusion 2 - JL mod - D83] Test system: MS2 coat protein Read-out: apparent KD of MS2 coat protein Value: ?
Response: 0.0146 µM

Prompt: Item: AAUAAGUCAGGAUAUGCGAAUAGAAGAUAAGAUACCCAAAAGCAGAAGGGACAUGAGGAUCACCCAUGUAAAUA [JR_Exc004_Sub010] Test system: MS2 coat protein Read-out: apparent KD of MS2 coat protein Value: ?
Response: 0.0256 µM

Prompt: Item: AGCUAGUCAGGAUAUACGAACAUGUCAAAAGACGUAAGGGAACAUGAGGAUCACCCAUGUAGAAGGGACUCGCA [Diamond 51] Test system: MS2 coat protein Read-out: apparent KD of MS2 coat protein Value: ?
Response: 0.0985 µM

Prompt: Item: GAUUAGGUAGGAUAUACAUGAGGAUCACCCAUGUAGGAAAAAAGCUACGAAAAAGAAUGUAGAAGGACCUAAAG [Mat - Exclusion 3 - Mayanna mod - D105] Test system: MS2 coat protein Read-out: apparent KD of MS2 coat protein Value: ?
Response: 0.0229 µM

Prompt: Item: AAAAAGCGAGGAUAUACAAAAGAGCGAAAGCUCAAAAGGAAACAUGAGGAUCACCCAUGUAGAAGGCGCAAGAA [John Whine] Test system: MS2 coat protein Read-out: apparent KD of MS2 coat protein Value: ?
Response: 0.0201 µM

Prompt: Item: CUUAAGUGAGGAUAUCAGUAGUAAAAAAAUAAAAUUACUACUGAGAAGGCACAUGAGGAUCACCCAUGUUCCAA [EX4 341: Super Stable 41] Test system: MS2 coat protein Read-out: apparent KD of MS2 coat protein Value: ?
Response: 0.0381 µM

Prompt: Item: AAGAAACUAGGAUAUACAAGGAAGAAAGAAAAGAAAAGAAAACAUGAGGAUCACCCAUGUAGAAGGAGUUAGAA [EteRNA is fun!] Test system: MS2 coat protein Read-out: apparent KD of MS2 coat protein Value: ?
Response: 0.0313 µM

Prompt: Item: GCUUGUGUAGGAUAUACAUGAGGAUCACCCAUGUGAGAGAAAAAAGUGAGAAAGAAAAGUAGAAGGACGUGAGG [salish99-ex3-80] Test system: MS2 coat protein Read-out: apparent KD of MS2 coat protein Value: ?
Response: 0.0765 µM

Prompt: Item: AGUUGGCGAGGAUAUACAUGAGGAUCACCCAUGUGAGAGAAAAAAGUGAGAAAGAAAAGUAGAAGGCGCUGACA [salish99-ex3-05] Test system: MS2 coat protein Read-out: apparent KD of MS2 coat protein Value: ?
Response: 0.202 µM

Prompt: Item: UGCCGUCUAGGAUAUACAUGAGGAUCACCCAUGUGACACACAUAUUUUACAAAACCAUGUAGAAGGAGACGGCA [E3-2.0] Test system: MS2 coat protein Read-out: apparent KD of MS2 coat protein Value: ?
Response: 0.477 µM

Prompt: Item: AAAGUGCAAGGAUAUAUAUGAAAAGUUACGAAAGUAACAAAACAUGAGGAUCACCCAUGUAGAAGGUGCACAAA [Seclusion (MS2 riboswitches - Exlclusion 2)] Test system: MS2 coat protein Read-out: apparent KD of MS2 coat protein Value: ?
Response: 0.0183 µM

Prompt: Item: GAAAAGUGAGGAUAUACAGAUAAAAAAACGAAAAAAAAUCUGUAGAAGGCACAUGAGGAUCACCCAUGUAAAAG [Mat - Exclusion 4 - Mayanna - D107] Test system: MS2 coat protein Read-out: apparent KD of MS2 coat protein Value: ?
Response: 0.0366 µM

Prompt: Item: GCUUGCCAAGGAUAUACAUGAGGAUCACCCAUGUGAGAGAAAAAAGUGAGAAAGAAAAGUAGAAGGUGGUGAGG [salish99-ex3-110] Test system: MS2 coat protein Read-out: apparent KD of MS2 coat protein Value: ?
Response: 0.12 µM

Prompt: Item: AAAAAGUGAGGAUAUACAUGAGGAUCACCCAUGUGUAUAAAAAAUUACACGAAAGAAUGUAGAAGGCACUAAAA [JL Mayanne Mod 3] Test system: MS2 coat protein Read-out: apparent KD of MS2 coat protein Value: ?
Response: 0.0428 µM

Prompt: Item: AACUGACAUGAGGAUCACCCAUGUCAGGAUAUGAUAUGUAAAAAAUAAAAAAUACUUAUCAGAAGGGACAUGAA [Design 43: Sub-opt C] Test system: MS2 coat protein Read-out: apparent KD of MS2 coat protein Value: ?
Response: 0.0144 µM

Prompt: Item: AACAAACAUGAGGAUCACCCAUGUCAGGAUAUGCAAAUAACAAACAACAAACAACAAAGCAGAAGGGAUAGGAA [Mat - Exclusion 1 - Eli mod - D52] Test system: MS2 coat protein Read-out: apparent KD of MS2 coat protein Value: ?
Response: 0.0212 µM

Prompt: Item: AAAAGCUCAGGAUAUACGGUCUGUUGUUGAGAAAUAAAAAAACAUGAGGAUCACCCAUGUAGAAGGGAGCGAAA [Exclusion2-cac3] Test system: MS2 coat protein Read-out: apparent KD of MS2 coat protein Value: ?
Response: 0.111 µM

Prompt: Item: AAGAAGUCAGGAUAUGCUGAUAGUAAAUUGAGUGAUGAGUAGCAGAAGGGACAUGAGGAUCACCCAUGUAAAGA [Opal 12] Test system: MS2 coat protein Read-out: apparent KD of MS2 coat protein Value: ?
Response: 0.0326 µM

Prompt: Item: AAAAACAGAGGAUAUACAAAAUGAUGACGAAAGUCAUCAAAACAUGAGGAUCACCCAUGUAGAAGGCUGAAAAA [Mod of Meechl] Test system: MS2 coat protein Read-out: apparent KD of MS2 coat protein Value: ?
Response: 0.0202 µM
